Here, each record is paired with measured koff data.
- assay system: T1, nanodisc embedded human CACNG1 expressed with a C-terminal PADRE-Flag-His tag (human, UniProt Q06432 1-222)
- T1 construct: Captured on an anti-His Biacore surface; also called human CACNG1 nanodisc; CACNG1 nanodisc; not shown: C-terminal tag
- T1 sequence (Q06432 whole entry): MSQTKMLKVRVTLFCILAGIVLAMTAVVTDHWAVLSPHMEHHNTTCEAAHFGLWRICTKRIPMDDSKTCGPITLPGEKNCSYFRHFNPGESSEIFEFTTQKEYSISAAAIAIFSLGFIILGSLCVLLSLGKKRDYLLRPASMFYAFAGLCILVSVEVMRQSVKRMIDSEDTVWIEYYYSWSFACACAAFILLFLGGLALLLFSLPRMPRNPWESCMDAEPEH
- assay: SPR, anti-His-captured nanodisc, 25 C
Only the number, expressed in s⁻¹, is required.

Request: Given the entry H2aM31941N (antibody, mouse IgG1, kappa, V domains shown, Both names are treated as one molecule; also called H1M31941N; lot H1M31941N-L1) VH: QVQLVQSGAEVKKPGASVKVSCKASGYAFTTYGITWVRQAPGQGLEWMGWISAYNGNTNYAEKVQGRFTMTTDTSTNTAYMELRSLRSDDTAVYFCARKGHYGSGTYYNPFGFDFWGQGTMVTVSS VL: EIMLMQSPGTLSLSPGERATLSCRASQSVSSSYLAWYQQKPGQAPRLLIYGASSRATDIPDRFSGSGSGTDFTLTISRLEPEDFAVYFCQQYYGSPWTFGQGTKVEIKR , report its measured koff.
Result: 0.000406

Request: Now the same for REGN9908 (antibody, mouse IgG2b, V domains shown, mIgG2b) VH: EVQLLESGGGLAQPGGSLRLSCAASGFTFSSYAMSWVRQAPGKGLEWVSSVSGSGGTTYYAASVKGRFTVSRDNSKKTLYLQMNSLRAEDTAVYYCGKGGYCSSSGCRHYGMDVWGQGTTVTVSA VL: QSVLTQPPSASGTPGQRVAISCSGSNSNIGNNYLYWYQQIPGTTPKLLIYRNNQRPSGVPDRFSASKSGTSASLAISGLRSGDEADYYCAAWDDSLSGYVFGTGTKVTVLG
Result: 0.00402

Request: Now the same for H2aM31944N (antibody, mouse IgG2a, kappa, V domains shown, mIgG2a; also called CACNG1 mIgG2a antibody) VH: QVQLVESGGGVVQPGRSLRLSCEASGITFRNYGMHWVRQAPGKGLEWVAVMWYDGSNKYYADSVKGRFTISRDNSKNTVYLQMNSLRAEDTAVYYCARRGHIATAAPFDYWGQGTLVTVSS VL: DIQMTQSPSSLSASVGDRVTISCRASQSISSYLNWYQQKPGKAPKVLMYAASSLQSGVPSRFSGSGSGTDFTLTISSLQPEDFATYYCQQSYSTPPITFGQGTRLEIKR
Result: 0.00395
